SOS1 nucleotide exchange of wild-type KRAS (Homo sapiens (Human)): reported pIC50 for various compounds.
Please express pIC50 as -log10 of the molar concentration.

Consider the following illustrative entries.
>  <Compound>
Cc1nc(N[C@H](C)c2cccc(C(F)F)c2F)c2cc(-c3cncnc3)c(=O)n(C)c2n1

>  <Tgt>
SOS1 nucleotide exchange of wild-type KRAS (Homo sapiens (Human))

>  <Readout Label>
pIC50

>  <Measured Value>
6.76

$$$$
>  <Compound>
Cc1nc(N[C@H](C)c2cccc(C(F)F)c2F)c2cc(-c3cccnc3OCCO)c(=O)n(C)c2n1

>  <Tgt>
SOS1 nucleotide exchange of wild-type KRAS (Homo sapiens (Human))

>  <Readout Label>
pIC50

>  <Measured Value>
6.76

$$$$
>  <Compound>
Cc1nc(N[C@H](C)c2cccc(C(F)F)c2F)c2cc(-c3ccnnc3)c(=O)n(C)c2n1

>  <Tgt>
SOS1 nucleotide exchange of wild-type KRAS (Homo sapiens (Human))

>  <Readout Label>
pIC50

>  <Measured Value>
6.92

$$$$
>  <Compound>
Cc1nc(N[C@H](C)c2cccc(C(F)F)c2F)c2cc(C3=CCS(=N)(=O)CC3)c(=O)n(C)c2n1 (stereo partly drawn)

>  <Tgt>
SOS1 nucleotide exchange of wild-type KRAS (Homo sapiens (Human))

>  <Readout Label>
pIC50

>  <Measured Value>
7.11

$$$$
>  <Compound>
C[C@@H](Nc1ncnc2c1cc(C(=O)N1CCn3ccnc3C1)c(=O)n2C)c1cccc(C(F)F)c1F

>  <Tgt>
SOS1 nucleotide exchange of wild-type KRAS (Homo sapiens (Human))

>  <Readout Label>
pIC50

>  <Measured Value>
6.64

$$$$
>  <Compound>
C[C@@H](Nc1ncnc2c1cc(C1CCN(CC(F)F)CC1)c(=O)n2C)c1cccc(C(F)F)c1F

>  <Tgt>
SOS1 nucleotide exchange of wild-type KRAS (Homo sapiens (Human))

>  <Readout Label>
pIC50

>  <Measured Value>
7.40

$$$$
>  <Compound>
C[C@@H](Nc1ncnc2c1cc(-c1ccccc1C#N)c(=O)n2C)c1cccc(C(F)F)c1F

>  <Tgt>
SOS1 nucleotide exchange of wild-type KRAS (Homo sapiens (Human))

>  <Readout Label>
pIC50

>  <Measured Value>
7.06

$$$$
>  <Compound>
Cc1nc(N[C@H](C)c2cccc(C(F)F)c2F)c2cc(C3=CCS(=O)(=O)CC3)c(=O)n(C)c2n1

>  <Tgt>
SOS1 nucleotide exchange of wild-type KRAS (Homo sapiens (Human))

>  <Readout Label>
pIC50

>  <Measured Value>
7.17

$$$$

With those in mind, consider the next compound.
## Input Lab note: need pIC50 with SOS1 nucleotide exchange of wild-type KRAS (Homo sapiens (Human)) for entry C[C@@H](Nc1ncnc2c1cc(C1=C[C@H]3CNC[C@@H](C1)O3)c(=O)n2C)c1cccc(C(F)F)c1F , please look it up.
## Output 7.71

====

SOS1 catalytic domain (residues 564-1049) (Homo sapiens (Human)): reported pKd for various compounds.
Sequence (Q07889 564-1049): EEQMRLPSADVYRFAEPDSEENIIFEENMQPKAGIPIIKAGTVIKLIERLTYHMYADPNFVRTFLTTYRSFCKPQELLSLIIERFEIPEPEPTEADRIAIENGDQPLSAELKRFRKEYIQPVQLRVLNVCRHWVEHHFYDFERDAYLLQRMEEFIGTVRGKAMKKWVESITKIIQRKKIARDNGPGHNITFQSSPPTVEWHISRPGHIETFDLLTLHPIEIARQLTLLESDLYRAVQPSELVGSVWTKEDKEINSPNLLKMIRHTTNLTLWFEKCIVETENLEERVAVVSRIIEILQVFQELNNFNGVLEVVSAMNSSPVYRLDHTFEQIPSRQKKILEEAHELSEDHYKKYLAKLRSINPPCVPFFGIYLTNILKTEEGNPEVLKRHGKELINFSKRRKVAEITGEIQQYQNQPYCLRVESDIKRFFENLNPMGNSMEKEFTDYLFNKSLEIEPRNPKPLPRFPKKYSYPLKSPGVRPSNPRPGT
Please express pKd as -log10 of the molar concentration.

Consider the following illustrative entries.
>  <Compound>
C[C@@H](Nc1ncnc2c1cc(C1=CCNCC1)c(=O)n2C)c1cccc(C(F)F)c1F [Example 1-3]

>  <pKd>
8.10

$$$$
>  <Compound>
C[C@@H](Nc1ncnc2c1cc(-c1ccccc1C#N)c(=O)n2C)c1cccc(C(F)F)c1F [Example 21-6]

>  <pKd>
6.93

$$$$
>  <Compound>
C[C@@H](Nc1ncnc2c1cc(-c1ccc[nH]1)c(=O)n2C)c1cccc(C(F)F)c1F [Example 21-1]

>  <pKd>
5.94

$$$$

With those in mind, consider the next compound.
## Input Fill blank: measured pKd of the compound C[C@@H](Nc1ncnc2c1cc(C(=O)N1CCN(C)CC1)c(=O)n2C)c1cccc(C(F)F)c1F [Example 26-7] is ____.
## Output 7.11

Taken from patent US11168102B1.
